Target chain: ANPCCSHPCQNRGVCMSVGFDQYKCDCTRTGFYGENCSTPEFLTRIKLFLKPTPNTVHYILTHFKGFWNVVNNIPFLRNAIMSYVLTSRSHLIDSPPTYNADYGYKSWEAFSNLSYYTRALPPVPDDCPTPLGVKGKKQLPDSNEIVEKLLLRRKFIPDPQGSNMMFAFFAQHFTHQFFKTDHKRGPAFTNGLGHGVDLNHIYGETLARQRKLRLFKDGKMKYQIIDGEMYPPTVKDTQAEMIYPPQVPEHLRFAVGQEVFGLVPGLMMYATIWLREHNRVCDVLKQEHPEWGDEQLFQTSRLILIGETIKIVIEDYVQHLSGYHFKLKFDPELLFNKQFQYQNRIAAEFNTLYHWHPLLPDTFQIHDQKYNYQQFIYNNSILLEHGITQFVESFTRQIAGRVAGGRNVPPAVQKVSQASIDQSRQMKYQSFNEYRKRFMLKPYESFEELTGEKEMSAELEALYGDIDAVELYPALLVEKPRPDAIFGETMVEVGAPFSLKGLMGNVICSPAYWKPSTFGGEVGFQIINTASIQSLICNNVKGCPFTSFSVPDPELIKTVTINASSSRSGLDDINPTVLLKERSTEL
pIC50: −log10 of the molar value.
quantity.name: pIC50

>>> result("O=c1cc(-c2ccccc2)oc2cc(O)c(CCO)c(O)c12")
5.02
>>> result("CC(C)=CCc1c(O)cc(O)c2c(=O)cc(-c3ccccc3)oc12")
5.17
>>> result("O=c1cc(-c2ccccc2)oc2cc(O)cc(O)c12")
4.73
